# Read-out: MicroRNA 122 (MIR122), gene 406906
# EXPERIMENTAL_DETAILS: LTEA_HepaRG_MIR122: Life Technologies and Expression Analysis (LTEA) Assay for MicroRNA 122 (MIR122) using HepaRG (AID 2283516)
# CONDITIONS: mRNA level, 48 h; actives raise or lower the signal
Calls of active or inactive are those of the source. How the source made its calls: active means hit-call score of the fitted dose curve at least 0.9, where 1 is the maximum; inactive means score below 0.9.
PROPERTY_NAME: AC50

// known answers, use as guide
>>> result_value("COC(=O)NC(=S)Nc1ccccc1NC(=S)NC(=O)OC")
"inactive"
>>> result_value("CCOc1nc(C(Cl)(Cl)Cl)ns1")
"0.682 µM (active)"
>>> result_value("CCOc1nc(F)cc2nc(S(=O)(=O)Nc3c(Cl)cccc3Cl)nn12")
"inactive"
>>> result_value("CSC(=O)c1c(C(F)F)nc(C(F)(F)F)c(C(=O)SC)c1CC(C)C")
"49.8 µM (active)"
>>> result_value("CCCN(CC)CC1COC2(CCC(C(C)(C)C)CC2)O1 (stereo unspecified)")
"inactive"

Next molecule, AC50 to be filled in.
Task: // AC50 lookup, key: CCSC(=O)N1CCCCCC1
Output: inactive

Values from PubChem BioAssay (EPA / NIEHS)
